Source: patent US20250049896A1

Target: T1, Hmm-hTFRC (REGN2431), monomeric human transferrin receptor ectodomain with N-terminal hexahistidine-myc-myc … (human, UniProt P02786 89-760)
T1 construct: also called hmm.hTfR(C89-F763); His-myc-myc-hTFRC ecto
T1 sequence (P02786 other isoform, or with tags, fused parts or gaps): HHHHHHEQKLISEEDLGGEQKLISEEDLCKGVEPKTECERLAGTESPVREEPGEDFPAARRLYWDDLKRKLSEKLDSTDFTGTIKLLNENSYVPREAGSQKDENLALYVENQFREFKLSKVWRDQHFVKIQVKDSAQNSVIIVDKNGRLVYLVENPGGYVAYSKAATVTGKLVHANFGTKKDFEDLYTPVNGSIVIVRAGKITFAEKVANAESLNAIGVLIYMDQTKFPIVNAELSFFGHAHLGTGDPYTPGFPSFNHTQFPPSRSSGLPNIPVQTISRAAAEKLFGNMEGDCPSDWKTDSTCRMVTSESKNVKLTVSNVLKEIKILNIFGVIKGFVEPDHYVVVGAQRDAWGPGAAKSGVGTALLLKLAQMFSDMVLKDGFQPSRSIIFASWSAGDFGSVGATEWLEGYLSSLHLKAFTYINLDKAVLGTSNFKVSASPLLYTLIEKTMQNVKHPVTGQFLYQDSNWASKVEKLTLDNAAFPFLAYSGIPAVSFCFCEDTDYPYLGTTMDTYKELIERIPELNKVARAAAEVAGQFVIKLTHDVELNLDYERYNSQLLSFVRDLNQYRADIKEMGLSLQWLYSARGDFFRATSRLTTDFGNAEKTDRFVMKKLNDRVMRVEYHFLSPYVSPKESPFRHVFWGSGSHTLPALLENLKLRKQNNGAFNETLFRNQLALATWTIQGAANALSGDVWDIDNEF
Assay: blocking ELISA, supernatant; Hmm-hTFRC binding to immobilized human holo-Tf
assay.endpoint: % Blocking (%)

- binder: "12812B scFv (VK-VH) (scFv, CHO supernatant; Vk-3xG4S-Vh) scFv: DIQMTQSPPSVSASVGDRVTITCRASQGISSWLAWYQQKPGKAPKLLIYAASSLQSGVPSRFSGSGSGTDFTLTISSLQPEDFATYYCQQANSFPRTFGQGTKVEIKGGGGSGGGGSGGGGSQVQLVQSGAEVKKPGSSVRVSCKASRGTFSSYAISWVRQAPGQGLEWMGGIIPIFGTANYAQKFLARVTITADESTSTAYMELSSLRSEDTAVYYCAREKGWNYFDYWGQGTLVTVSS"
  reported: 12
- binder: "31863B Fab (Fab, V domains shown, CHO supernatant) VH: EVQLVESGGGLVQPGGSLRLSCAASGFTFNSYAMTWVRQAPGKGLEWVSFIGGSTGNTYYAGSVKGRFTISSDNSKKTLYLQMNSLRAEDTAVYYCAKGGAARRMEYFQHWGQGTLVTVSS VL: DIQMTQSPSSLSASIGDRVTITCRASQGISNYLAWYQQKPGKVPKLLIYAASTLQSGVPSRFSGSGSGTDFTLTISSLQPEDVATYYCQNHNSVPLTFGGGTKVEIKR"
  reported: 24
- binder: "69307 scFv (VK-VH) (scFv, CHO supernatant; Vk-3xG4S-Vh) scFv: DIQMTQSPSSVSASVGDRVTITCRASQGISSWLAWYQQKPGKAPKLLIYAASSLQSGVPSRFSGSGSGTDFTLTISSLQPEDFATYYCQKADSLPYAFGQGTKLEIKGGGGSGGGGSGGGGSEVQLVESGGGLVQPGGSLRLSCTASGFTFSNYWMTWVRQAPGKGLEWVANIKEDGSEKEYVDSVKGRFTISRDNAKNSLYLQMNSLRGEDTAVYYCARDGEQLVDYYYYYVMDVWGQGTTVTVSS"
  reported: 12
- binder: "69305 scFv (VK-VH) (scFv, CHO supernatant; Vk-3xG4S-Vh) scFv: DIQMTQSPSSLSASVGDRVTITCRASQSIDRYLNWYRQKPGKAPKLLIYTTSSLQSGVPSRFSGSGSGTDFTLTLSSLQPEDFATYYCQQSYSPPLTFGGGTKVEIKGGGGSGGGGSGGGGSQVQLVESGGGVVQPGRSLRLSCAASGFTFSSYGMHWVRQAPGKGLEWVAVIWYDGSNKYYADSVKGRFTISRDISKNTLYLQMNSLRAEDTAVYYCAGQLDLFFDYWGQGTLVTVSS"
  reported: 5
- binder: "31874B scFv (VK-VH) (scFv, CHO supernatant; Vk-3xG4S-Vh) scFv: DIQMTQSPSSLSASVGDRVTITCRASQGISNYLAWYQQKPGKVPNLLIYAASTLQSGVPSRFSGSGSGTDFTLTISSLQPEDVATYYCQKYNSAPLTFGGGTKVEIKGGGGSGGGGSGGGGSEVQLVESGGGLVQPGGSLRLSCAASGFAFSSYAMTWVRQAPGKGLEWVSVISGTGGSTYYADSVKGRFTISRDNSKNTLYLQMNSLRAEDTAVYYCAKGGAARRMEYFQYWGQGTLVTVSS"
  reported: -1
